Sourced from ChEMBL document CHEMBL5136990

assay-target: Polyamine deacetylase HDAC10 (Homo sapiens)
Sequence (Q969S8 whole entry): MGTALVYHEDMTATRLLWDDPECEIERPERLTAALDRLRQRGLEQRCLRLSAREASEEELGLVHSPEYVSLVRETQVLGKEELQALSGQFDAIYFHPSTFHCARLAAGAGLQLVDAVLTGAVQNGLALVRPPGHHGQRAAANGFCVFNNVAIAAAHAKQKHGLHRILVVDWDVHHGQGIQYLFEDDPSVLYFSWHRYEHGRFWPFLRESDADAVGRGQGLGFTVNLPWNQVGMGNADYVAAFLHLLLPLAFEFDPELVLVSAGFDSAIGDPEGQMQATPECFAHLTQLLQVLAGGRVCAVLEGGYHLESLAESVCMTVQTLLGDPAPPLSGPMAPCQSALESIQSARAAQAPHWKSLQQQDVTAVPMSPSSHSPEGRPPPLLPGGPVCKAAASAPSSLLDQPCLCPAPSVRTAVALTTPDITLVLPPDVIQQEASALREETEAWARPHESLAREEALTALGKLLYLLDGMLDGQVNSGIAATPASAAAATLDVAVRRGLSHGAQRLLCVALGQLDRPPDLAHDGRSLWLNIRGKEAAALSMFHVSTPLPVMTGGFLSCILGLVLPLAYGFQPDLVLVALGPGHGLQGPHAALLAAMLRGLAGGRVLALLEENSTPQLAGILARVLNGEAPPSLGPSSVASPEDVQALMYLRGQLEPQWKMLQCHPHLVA
assay-summary: Inhibition of recombinant human HDAC10 using fluorogenic substrate
value-kind: IC50

record_smiles=CN(Cc1ccc(C(=O)NO)cc1[18F])CC12CC3CC(CC(C3)C1)C2 assay_target="Polyamine deacetylase HDAC10 (Homo sapiens)" data_value="> 10 µM"

====

assay-target: UniProt:O76083
Sequence (O76083 whole entry): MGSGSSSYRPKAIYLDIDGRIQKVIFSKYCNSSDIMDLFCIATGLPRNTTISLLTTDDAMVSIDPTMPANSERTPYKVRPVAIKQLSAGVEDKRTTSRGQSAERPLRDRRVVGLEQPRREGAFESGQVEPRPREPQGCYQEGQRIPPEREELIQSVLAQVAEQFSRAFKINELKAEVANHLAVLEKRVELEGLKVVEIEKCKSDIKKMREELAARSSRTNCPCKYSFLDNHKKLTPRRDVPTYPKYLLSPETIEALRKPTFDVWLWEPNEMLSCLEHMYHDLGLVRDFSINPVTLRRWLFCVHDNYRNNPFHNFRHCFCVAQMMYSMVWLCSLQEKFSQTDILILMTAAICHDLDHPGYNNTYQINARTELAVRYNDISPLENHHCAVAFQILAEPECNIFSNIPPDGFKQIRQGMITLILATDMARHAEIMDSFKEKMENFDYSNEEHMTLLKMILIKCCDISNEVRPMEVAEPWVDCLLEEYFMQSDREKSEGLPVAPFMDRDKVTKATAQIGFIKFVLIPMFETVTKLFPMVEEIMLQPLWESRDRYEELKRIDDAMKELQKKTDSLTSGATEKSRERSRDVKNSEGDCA
value-kind: IC50 (nM)

record_smiles=C[C@@H]1CN(Cc2ccc(C(=O)NO)cc2)C[C@H]1c1nc2c(cnn2C2CCCC2)c(=O)[nH]1 assay_target=UniProt:O76083 value_kind=IC50 data_value=107

====

assay-target: Histone deacetylase 1 (Homo sapiens)
Sequence (Q13547 whole entry): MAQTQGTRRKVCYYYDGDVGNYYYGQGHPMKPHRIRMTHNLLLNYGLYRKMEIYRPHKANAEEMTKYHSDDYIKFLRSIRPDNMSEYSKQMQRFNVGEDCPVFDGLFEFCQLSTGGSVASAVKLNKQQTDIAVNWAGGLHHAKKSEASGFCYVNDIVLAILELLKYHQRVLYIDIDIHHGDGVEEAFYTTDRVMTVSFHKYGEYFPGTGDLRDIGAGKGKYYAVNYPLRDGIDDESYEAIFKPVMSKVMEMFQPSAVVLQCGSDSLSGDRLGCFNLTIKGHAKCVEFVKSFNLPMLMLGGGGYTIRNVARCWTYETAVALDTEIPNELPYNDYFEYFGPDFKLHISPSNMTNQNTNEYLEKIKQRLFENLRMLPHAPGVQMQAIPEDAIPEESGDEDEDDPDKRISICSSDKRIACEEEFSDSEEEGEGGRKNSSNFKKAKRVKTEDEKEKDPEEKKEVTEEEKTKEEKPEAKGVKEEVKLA
assay-summary: Inhibition of recombinant human HDAC1 using fluorogenic substrate
pIC50: −log10 of the molar value.
value-kind: pIC50

record_smiles=CN(Cc1ccc(C(=O)NO)cc1[18F])CC12CC3CC(CC(C3)C1)C2 data_value="< 5.00"
